Test Details: Half-lives and pharmacokinetic parameters of polypeptides vs HM-1
Condition Parameters: in vivo
Peptide text beside a SMILES is read from it. * marks the point of attachment. Hexanoyl(6-maleimido) = O=C1C=CC(=O)N1CCCCCC(=O)*; X2 = O=C1C=CC(=O)N1CCOCCOCCCCCC(=O)*; X1 = O=C1C=CC(=O)N1CCOCCCC(=O)*
Quantity: clearance (mL/min/kg)

>>> numeric_value("C[C@H](NC(=O)CNC(=O)[C@H](CCCNC(=N)N)NC(=O)CCCCCOCCOCCN1C(=O)C=CC1=O)C(=O)N[C@@H](CC(=O)O)C(=O)N[C@@H](CCCNC(=N)N)C(=O)N[C@@H](C)C(=O)NCC(=O)NCC(=O)NCC(=O)NCC(=O)N[C@@H](CCCNC(=N)N)C(=O)NCC(=O)N[C@@H](CC(=O)O)C(=O)O [X60] (X2-RGADRAGGGGRGD-OH)")
0.552
>>> numeric_value("C[C@H](NC(=O)[C@H](CCCNC(=N)N)NC(=O)[C@H](CC(=O)O)NC(=O)[C@H](CCC(=O)O)NC(=O)CNC(=O)[C@H](CCCNC(=N)N)NC(=O)CCCCCN1C(=O)C=CC1=O)C(=O)NCC(=O)NCC(=O)NCC(=O)NCC(=O)N[C@@H](CCCNC(=N)N)C(=O)NCC(=O)N[C@@H](CC(=O)O)C(=O)O [P6] ({Hexanoyl(6-maleimido)}-RGEDRAGGGGRGD-OH; C-terminus assumed)")
0.602
>>> numeric_value("C[C@H](NC(=O)CNC(=O)[C@H](CCCNC(=N)N)NC(=O)CCCOCCN1C(=O)C=CC1=O)C(=O)N[C@@H](CC(=O)O)C(=O)N[C@@H](CCCNC(=N)N)C(=O)N[C@@H](C)C(=O)NCC(=O)NCC(=O)NCC(=O)NCC(=O)N[C@@H](CCCNC(=N)N)C(=O)NCC(=O)N[C@@H](CC(=O)O)C(=O)O [X51] (X1-RGADRAGGGGRGD-OH)")
0.513

###

Below, each entry is listed alongside its reported CNV Incidence (%).
System: choroidal neovascularization
Test Details: Choroidal neovascularization in rats (laser photocoagulation, FFA)
Type: in vivo
Condition Parameters: day 14 after administration, total light spot number was 137, 0.05 μM in the vitreous chamber once a day for 1 week, BN rats
Peptide text beside a SMILES is read from it. * marks the point of attachment. X66 = O=C1C=CC(=O)N1c1cccc(CCCCCCCC(=O)*)c1; X54 = O=C1C=CC(=O)N1c1cccc(CCCCCCC(=O)*)c1; X71 = O=C1C=CC(=O)N1c1cccc(CCCCCC(=O)*)c1
Quantity: CNV Incidence (%)

>>> numeric_value("C[C@H](NC(=O)CNC(=O)[C@H](CCCNC(=N)N)NC(=O)CCCCCCCc1cccc(N2C(=O)C=CC2=O)c1)C(=O)N[C@@H](CC(=O)O)C(=O)N[C@@H](CCCNC(=N)N)C(=O)N[C@@H](C)C(=O)NCC(=O)NCC(=O)NCC(=O)NCC(=O)N[C@@H](CCCNC(=N)N)C(=O)NCC(=O)N[C@@H](CC(=O)O)C(=O)O [X31] (X66-RGADRAGGGGRGD-OH)")
41.61
>>> numeric_value("C[C@H](NC(=O)CNC(=O)[C@H](CCCNC(=N)N)NC(=O)CCCCCc1cccc(N2C(=O)C=CC2=O)c1)C(=O)N[C@@H](CC(=O)O)C(=O)N[C@@H](CCCNC(=N)N)C(=O)N[C@@H](C)C(=O)NCC(=O)NCC(=O)NCC(=O)NCC(=O)N[C@@H](CCCNC(=N)N)C(=O)NCC(=O)N[C@@H](CC(=O)O)C(=O)O [X29] (X71-RGADRAGGGGRGD-OH)")
40.88
>>> numeric_value("C[C@H](NC(=O)CNC(=O)[C@H](CCCNC(=N)N)NC(=O)CCCCCCc1cccc(N2C(=O)C=CC2=O)c1)C(=O)N[C@@H](CC(=O)O)C(=O)N[C@@H](CCCNC(=N)N)C(=O)N[C@@H](C)C(=O)NCC(=O)NCC(=O)NCC(=O)NCC(=O)N[C@@H](CCCNC(=N)N)C(=O)NCC(=O)N[C@@H](CC(=O)O)C(=O)O [X30] (X54-RGADRAGGGGRGD-OH)")
45.99

###

Test Details: Half-lives and pharmacokinetic parameters of polypeptides vs HM-1
Condition Parameters: in vivo
Peptide text beside a SMILES is read from it. * marks the point of attachment. X73 = O=C1C=CC(=O)N1c1ccc(CCCCCCCCCC(=O)*)cc1; X40 = O=C1C=CC(=O)N1c1ccc(CCCCCCCCC(=O)*)cc1; X43 = O=C1C=CC(=O)N1c1ccc(CCCCCCC(=O)*)cc1; X10 = O=C1C=CC(=O)N1CCOCCOCCOCCOCCCC(=O)*; X69 = O=C1C=CC(=O)N1c1ccc(CCCCC(=O)*)cc1; X17 = O=C1C=CC(=O)N1CCOCCOCCCCCCCC(=O)*; X35 = O=C1C=CC(=O)N1CCOCCOCCOCCOCC(=O)*; X15 = O=C1C=CC(=O)N1CCOCCOCCOCCC(=O)*; X48 = O=C1C=CC(=O)N1CCCCCCCCCCCC(=O)*; X21 = O=C1C=CC(=O)N1CCOCCCCCCC(=O)*
Parameter threshold = 30000 ng·h/mL. Response is 1.0 when AUC(0-inf) meets or exceeds it, else 0.0.

>>> category("C[C@H](NC(=O)CNC(=O)[C@H](CCCNC(=N)N)NC(=O)CCCCCCCOCCOCCN1C(=O)C=CC1=O)C(=O)N[C@@H](CC(=O)O)C(=O)N[C@@H](CCCNC(=N)N)C(=O)N[C@@H](C)C(=O)NCC(=O)NCC(=O)NCC(=O)NCC(=O)N[C@@H](CCCNC(=N)N)C(=O)NCC(=O)N[C@@H](CC(=O)O)C(=O)O [X62] (X17-RGADRAGGGGRGD-OH)")
0.0
>>> category("C[C@H](NC(=O)CNC(=O)[C@H](CCCNC(=N)N)NC(=O)CCOCCOCCOCCN1C(=O)C=CC1=O)C(=O)N[C@@H](CC(=O)O)C(=O)N[C@@H](CCCNC(=N)N)C(=O)N[C@@H](C)C(=O)NCC(=O)NCC(=O)NCC(=O)NCC(=O)N[C@@H](CCCNC(=N)N)C(=O)NCC(=O)N[C@@H](CC(=O)O)C(=O)O [X64] (X15-RGADRAGGGGRGD-OH)")
1.0
>>> category("C[C@H](NC(=O)CNC(=O)[C@H](CCCNC(=N)N)NC(=O)COCCOCCOCCOCCN1C(=O)C=CC1=O)C(=O)N[C@@H](CC(=O)O)C(=O)N[C@@H](CCCNC(=N)N)C(=O)N[C@@H](C)C(=O)NCC(=O)NCC(=O)NCC(=O)NCC(=O)N[C@@H](CCCNC(=N)N)C(=O)NCC(=O)N[C@@H](CC(=O)O)C(=O)O [X70] (X35-RGADRAGGGGRGD-OH)")
0.0
>>> category("C[C@H](NC(=O)CNC(=O)[C@H](CCCNC(=N)N)NC(=O)CCCCCCCCc1ccc(N2C(=O)C=CC2=O)cc1)C(=O)N[C@@H](CC(=O)O)C(=O)N[C@@H](CCCNC(=N)N)C(=O)N[C@@H](C)C(=O)NCC(=O)NCC(=O)NCC(=O)NCC(=O)N[C@@H](CCCNC(=N)N)C(=O)NCC(=O)N[C@@H](CC(=O)O)C(=O)O [X44] (X40-RGADRAGGGGRGD-OH)")
0.0
>>> category("C[C@H](NC(=O)CNC(=O)[C@H](CCCNC(=N)N)NC(=O)CCCCCCCCCCCN1C(=O)C=CC1=O)C(=O)N[C@@H](CC(=O)O)C(=O)N[C@@H](CCCNC(=N)N)C(=O)N[C@@H](C)C(=O)NCC(=O)NCC(=O)NCC(=O)NCC(=O)N[C@@H](CCCNC(=N)N)C(=O)NCC(=O)N[C@@H](CC(=O)O)C(=O)O [X11] (X48-RGADRAGGGGRGD-OH)")
0.0
>>> category("C[C@H](NC(=O)CNC(=O)[C@H](CCCNC(=N)N)NC(=O)CCCCCCOCCN1C(=O)C=CC1=O)C(=O)N[C@@H](CC(=O)O)C(=O)N[C@@H](CCCNC(=N)N)C(=O)N[C@@H](C)C(=O)NCC(=O)NCC(=O)NCC(=O)NCC(=O)N[C@@H](CCCNC(=N)N)C(=O)NCC(=O)N[C@@H](CC(=O)O)C(=O)O [X54] (X21-RGADRAGGGGRGD-OH)")
0.0
>>> category("C[C@H](NC(=O)CNC(=O)[C@H](CCCNC(=N)N)NC(=O)CCCCCCc1ccc(N2C(=O)C=CC2=O)cc1)C(=O)N[C@@H](CC(=O)O)C(=O)N[C@@H](CCCNC(=N)N)C(=O)N[C@@H](C)C(=O)NCC(=O)NCC(=O)NCC(=O)NCC(=O)N[C@@H](CCCNC(=N)N)C(=O)NCC(=O)N[C@@H](CC(=O)O)C(=O)O [X42] (X43-RGADRAGGGGRGD-OH)")
0.0
>>> category("C[C@H](NC(=O)CNC(=O)[C@H](CCCNC(=N)N)NC(=O)CCCOCCOCCOCCOCCN1C(=O)C=CC1=O)C(=O)N[C@@H](CC(=O)O)C(=O)N[C@@H](CCCNC(=N)N)C(=O)N[C@@H](C)C(=O)NCC(=O)NCC(=O)NCC(=O)NCC(=O)N[C@@H](CCCNC(=N)N)C(=O)NCC(=O)N[C@@H](CC(=O)O)C(=O)O [X72] (X10-RGADRAGGGGRGD-OH)")
1.0
>>> category("C[C@H](NC(=O)CNC(=O)[C@H](CCCNC(=N)N)NC(=O)CCCCc1ccc(N2C(=O)C=CC2=O)cc1)C(=O)N[C@@H](CC(=O)O)C(=O)N[C@@H](CCCNC(=N)N)C(=O)N[C@@H](C)C(=O)NCC(=O)NCC(=O)NCC(=O)NCC(=O)N[C@@H](CCCNC(=N)N)C(=O)NCC(=O)N[C@@H](CC(=O)O)C(=O)O [X40] (X69-RGADRAGGGGRGD-OH)")
1.0
>>> category("C[C@H](NC(=O)CNC(=O)[C@H](CCCNC(=N)N)NC(=O)CCCCCCCCCc1ccc(N2C(=O)C=CC2=O)cc1)C(=O)N[C@@H](CC(=O)O)C(=O)N[C@@H](CCCNC(=N)N)C(=O)N[C@@H](C)C(=O)NCC(=O)NCC(=O)NCC(=O)NCC(=O)N[C@@H](CCCNC(=N)N)C(=O)NCC(=O)N[C@@H](CC(=O)O)C(=O)O [X45] (X73-RGADRAGGGGRGD-OH)")
0.0

Provenance of the data: patent US20200270309A1
